Taken from patent US5068325A.

Molecular target: alpha-2 receptors (Rattus norvegicus)
Sequence (P22909 1-465): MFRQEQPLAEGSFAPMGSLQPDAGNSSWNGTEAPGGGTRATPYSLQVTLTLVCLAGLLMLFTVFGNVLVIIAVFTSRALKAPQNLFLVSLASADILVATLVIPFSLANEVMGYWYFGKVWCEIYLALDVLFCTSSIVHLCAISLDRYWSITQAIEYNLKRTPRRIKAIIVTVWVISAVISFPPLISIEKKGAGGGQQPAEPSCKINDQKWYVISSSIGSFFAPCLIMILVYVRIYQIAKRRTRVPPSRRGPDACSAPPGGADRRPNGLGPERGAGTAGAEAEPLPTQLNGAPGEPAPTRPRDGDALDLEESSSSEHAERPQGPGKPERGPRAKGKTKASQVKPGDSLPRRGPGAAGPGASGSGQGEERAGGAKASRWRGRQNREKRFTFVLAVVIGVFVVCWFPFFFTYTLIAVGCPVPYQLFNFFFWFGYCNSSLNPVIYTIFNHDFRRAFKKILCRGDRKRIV
pIC50: −log10 of the molar value.
Is pIC50 at least 6? Then met. If not, not met.

[Q] API: above_or_equal(metric=pIC50, cutoff=6) for item Nc1nc2c(s1)CCN(Cc1ccc(Cl)cc1)CC2 [Compound B, reference compound]
[A] met

[Q] Does the compound `Nc1nc2c(s1)CCN(CC=Cc1ccc(-c3ccccc3)cc1)CC2` have recorded pIC50 that is 6 or more?
[A] not met

[Q] Could you please find out whether `COc1cccc(C=CCN2CCc3nc(N)sc3CC2)c1OC` has pIC50 that meets 6 or exceeds it?
[A] met

[Q] # check: pIC50 of `Nc1nc2c(s1)CCN(CC=Cc1ccc(Cl)cc1)CC2` is greater than or equal to 6
[A] met

[Q] Given Nc1nc2c(s1)CCN(C/C=C\c1ccccc1)CC2 [Example 12b] , state whether its pIC50 is at least 6.
[A] not met

[Q] Check if pIC50 >= 6 (inclusive). Item: `Nc1nc2c(s1)CCN(CC=Cc1cccc3ccccc13)CC2`
[A] met

[Q] Hi, just wondering whether Nc1nc2c(s1)CCN(CC=Cc1ccccc1N1CCCCC1)CC2 [Example 11p] shows pIC50 of 6 or higher.
[A] not met

[Q] Does pIC50 meet or surpass 6 for `Nc1nc2c(s1)CCN(CC=Cc1ccc3ccccc3c1)CC2` ?
[A] not met

[Q] Is pIC50 for N#Cc1ccc(C=CCN2CCc3nc(N)sc3CC2)cc1 [Example 14b] at or above 6?
[A] met
